# key: entry, value: IC50
# Test system: RAW264.7
# experiment-description: Antiinflammatory activity in mouse RAW264.7 cells assessed as inhibition of LPS-induced nitric oxide production
# Type: functional, cell-based
Write down the numeric answer in µM and omit the unit.

CC(C)(C)OC(=O)N(C(=O)OC(C)(C)C)C(=O)c1ccc(CN2C(=O)c3ccccc3S2(=O)=O)cc1	33.4
O=C(c1ccc(Cn2oc3ccccc3c2=O)cc1)N1CCCCC1	16.8
O=C(O)c1ccc(CN2C(=O)c3ccccc3S2(=O)=O)cc1	74.7

Moving on to another compound below.
Summary for this compound, `CC(C)(C)OC(=O)N(CCc1ccco1)C(=O)c1ccc(CN2C(=O)c3ccccc3S2(=O)=O)cc1` : IC50 is 48.6
